test system: Caco-2; assay: Permeability from apical to basolateral side of human Caco-2 cell monolayers assessed as increase in lucifer yellow flux at 7.0 mM relative to untreated control; type: ADME, cell-based; settings: caco-2, 7000 µM
*1 amine or outer side, *2 acyl side, *3 side chain or, on linkers, in order; H or OH if unused. Where a SMILES comes first, the peptide text is derived from it. [ ]: non-standard residue; d: D form. X1 = O=C([C@H](/C=C/c1ccccc1)N[*:1])[*:2]; Phe(3-Me) = Cc1cccc(C[C@H](N)C(=O)O)c1; Met(O2) = CS(=O)(=O)CC[C@H](N)C(=O)O; 2Thi = N[C@@H](Cc1cccs1)C(=O)O; Tle = CC(C)(C)[C@H](N)C(=O)O
value_kind: fold change (FC)

[1] CC[C@H](C)[C@H](NC(=O)[C@H](Cc1cccc(C)c1)NC(=O)[C@@H](N)Cc1ccccc1)C(=O)NCC(=O)N[C@@H](CCCNC(=N)N)C(=O)N[C@@H](CC(C)C)C(=O)O (H-F[Phe(3-Me)]IGRL-OH)
[2] CC[C@H](C)[C@H](NC(=O)[C@H](CC(N)=O)NC(=O)[C@@H](N)Cc1ccccc1)C(=O)NCC(=O)N[C@@H](CCCNC(=N)N)C(=O)N[C@@H](CC(C)C)C(=O)O (H-FNIGRL-OH)
Identify the entry with the smaller fold change (FC): 1 or 2 . Give the label under which the chosen entry appears.
1

[1] CC[C@H](C)[C@H](NC(=O)[C@H](CCS(C)(=O)=O)NC(=O)[C@@H](N)Cc1ccccc1)C(=O)NCC(=O)N[C@@H](CCCNC(=N)N)C(=O)N[C@@H](CC(C)C)C(=O)O (H-F[Met(O2)]IGRL-OH)
[2] CC[C@H](C)[C@H](NC(=O)[C@@H](NC(=O)[C@@H](N)Cc1ccccc1)C(C)C)C(=O)NCC(=O)N[C@@H](CCCNC(=N)N)C(=O)N[C@@H](CC(C)C)C(=O)O (H-FVIGRL-OH)
[3] CC[C@H](C)[C@H](NC(=O)[C@H](Cc1cccs1)NC(=O)[C@@H](N)Cc1ccccc1)C(=O)NCC(=O)N[C@@H](CCCNC(=N)N)C(=O)N[C@@H](CC(C)C)C(=O)O (H-F[2Thi]IGRL-OH)
[4] CC[C@H](C)[C@H](NC(=O)[C@H](CS)NC(=O)[C@@H](N)Cc1ccccc1)C(=O)NCC(=O)N[C@@H](CCCNC(=N)N)C(=O)N[C@@H](CC(C)C)C(=O)O (H-FCIGRL-OH)
Please give the order of these compounds when sorted by fold change (FC), largest value leading. A ranking is expressed here by listing the labels in the requested order.
4, 2, 3, 1

[I] CC[C@H](C)[C@H](NC(=O)[C@H](Cc1ccc(O)cc1)NC(=O)[C@@H](N)Cc1ccccc1)C(=O)NCC(=O)N[C@@H](CCCNC(=N)N)C(=O)N[C@@H](CC(C)C)C(=O)O (H-FYIGRL-OH)
[II] CC[C@H](C)[C@H](NC(=O)[C@H](/C=C/c1ccccc1)NC(=O)[C@@H](N)Cc1ccccc1)C(=O)NCC(=O)N[C@@H](CCCNC(=N)N)C(=O)N[C@@H](CC(C)C)C(=O)O (H-F[X1]IGRL-OH)
When I and II are compared, which has the higher number for fold change (FC)? Give the label under which the chosen entry appears.
II

[a] C=CC[C@@H](NC(=O)[C@@H](N)Cc1ccccc1)C(=O)N[C@H](C(=O)NCC(=O)N[C@@H](CCCNC(=N)N)C(=O)N[C@@H](CC(C)C)C(=O)O)[C@@H](C)CC
[b] CC[C@H](C)[C@H](NC(=O)[C@@H](NC(=O)[C@@H](N)Cc1ccccc1)C(C)(C)C)C(=O)NCC(=O)N[C@@H](CCCNC(=N)N)C(=O)N[C@@H](CC(C)C)C(=O)O (H-F[Tle]IGRL-OH)
[c] C=CC[C@H](NC(=O)[C@@H](N)Cc1ccccc1)C(=O)N[C@H](C(=O)NCC(=O)N[C@@H](CCCNC(=N)N)C(=O)N[C@@H](CC(C)C)C(=O)O)[C@@H](C)CC
Hey, quick one: sort these by fold change (FC), low to high? A ranking is expressed here by listing the labels in the requested order.
a, b, c
(a: 0.8, b: 6.7, c: 103)
